All figures here come from patent US7759345B2.

Test system: A-549
Assay remarks: Inhibition of cells growth by colorimetric assay (SRB), A-549
Assay type: cell-based
Test settings: Homo sapiens, A549, 48 h, read-out: LC50 A-549, A-549; SRB, 48 hours exposure
The entries below are paired with their reported LC50 (concentration for 50% cell killing).
Number plus unit, in that order.

Molecule	Endpoint value
COc1cc2c(cc1OC)[C@@]1(CS[C@@H]3c4c(OC(C)=O)c(C)c5c(c4[C@H](COC1=O)N1C3[C@H]3c4c(cc(C)c(OC)c4O)C[C@@H]([C@@H]1O)N3C)OCO5)NCC2 (stereo partly shown)	0.0101 µM
COc1cc2c(cc1OC(=O)C(F)(F)C(F)(F)C(F)(F)F)CCN[C@]21CS[C@@H]2c3c(OC(C)=O)c(C)c4c(c3[C@H](COC1=O)N1C2[C@H]2c3c(cc(C)c(OC)c3O)C[C@@H]([C@@H]1C#N)N2C)OCO4 (stereo partly shown)	0.00865 µM
C=COC(=O)Oc1cc2c(cc1OC)[C@@]1(CS[C@@H]3c4c(OC(C)=O)c(C)c5c(c4[C@H](COC1=O)N1C3[C@H]3c4c(cc(C)c(OC)c4OC(=O)OC=C)C[C@@H]([C@@H]1C#N)N3C)OCO5)NCC2 (stereo partly shown)	3.29 µM

Okay, now this molecule:
Task: Which LC50 (concentration for 50% cell killing) is reported with A-549 for this entry: COc1cc2c(cc1OC(=O)c1cc3ccccc3oc1=O)CCN[C@]21CS[C@@H]2c3c(OC(C)=O)c(C)c4c(c3[C@H](COC1=O)N1C2[C@H]2c3c(cc(C)c(OC)c3O)C[C@@H]([C@@H]1C#N)N2C)OCO4 (stereo partly shown) ?
Result: 10.6 µM

###

Tested on: HT-29
Assay remarks: Inhibition of cells growth by colorimetric assay (SRB), HT-29
Assay type: cell-based
Test settings: Homo sapiens, HT-29, 48 h, read-out: LC50 HT-29, HT-29; SRB, 48 hours exposure
The entries below are paired with their reported LC50 (concentration for 50% cell killing).
// units = µM; emit number, no label

Compound	Endpoint value
C=COC(=O)Oc1cc2c(cc1OC)[C@@]1(CS[C@@H]3c4c(OC(C)=O)c(C)c5c(c4[C@H](COC1=O)N1C3[C@H]3c4c(cc(C)c(OC)c4O)C[C@@H]([C@@H]1C#N)N3C)OCO5)NCC2 (stereo partly shown)	1.08
COc1cc2c(cc1OC)[C@@]1(CS[C@@H]3c4c(OC(C)=O)c(C)c5c(c4[C@H](COC1=O)N1C3[C@H]3c4c(cc(C)c(OC)c4O)C[C@@H]([C@@H]1C#N)N3C)OCO5)NCC2 (stereo partly shown)	12.7
COc1cc2c(cc1OC(=O)c1cc3ccccc3oc1=O)CCN[C@]21CS[C@@H]2c3c(OC(C)=O)c(C)c4c(c3[C@H](COC1=O)N1C2[C@H]2c3c(cc(C)c(OC)c3O)C[C@@H]([C@@H]1C#N)N2C)OCO4 (stereo partly shown)	10.6

Okay, now this compound:
Task: Request the reported LC50 (concentration for 50% cell killing) associated with C=COC(=O)Oc1cc2c(cc1OC)[C@@]1(CS[C@@H]3c4c(OC(C)=O)c(C)c5c(c4[C@H](COC1=O)N1C3[C@H]3c4c(cc(C)c(OC)c4OC(=O)OC=C)C[C@@H]([C@@H]1C#N)N3C)OCO5)N(C(=O)OC=C)CC2 (stereo partly shown)
Result: 10.2
